Biological target: cynomolgus LIV-1 (cynomolgus, UniProt A0A2K5WH46 30-741)
Sequence (A0A2K5WH46 entry or part of it): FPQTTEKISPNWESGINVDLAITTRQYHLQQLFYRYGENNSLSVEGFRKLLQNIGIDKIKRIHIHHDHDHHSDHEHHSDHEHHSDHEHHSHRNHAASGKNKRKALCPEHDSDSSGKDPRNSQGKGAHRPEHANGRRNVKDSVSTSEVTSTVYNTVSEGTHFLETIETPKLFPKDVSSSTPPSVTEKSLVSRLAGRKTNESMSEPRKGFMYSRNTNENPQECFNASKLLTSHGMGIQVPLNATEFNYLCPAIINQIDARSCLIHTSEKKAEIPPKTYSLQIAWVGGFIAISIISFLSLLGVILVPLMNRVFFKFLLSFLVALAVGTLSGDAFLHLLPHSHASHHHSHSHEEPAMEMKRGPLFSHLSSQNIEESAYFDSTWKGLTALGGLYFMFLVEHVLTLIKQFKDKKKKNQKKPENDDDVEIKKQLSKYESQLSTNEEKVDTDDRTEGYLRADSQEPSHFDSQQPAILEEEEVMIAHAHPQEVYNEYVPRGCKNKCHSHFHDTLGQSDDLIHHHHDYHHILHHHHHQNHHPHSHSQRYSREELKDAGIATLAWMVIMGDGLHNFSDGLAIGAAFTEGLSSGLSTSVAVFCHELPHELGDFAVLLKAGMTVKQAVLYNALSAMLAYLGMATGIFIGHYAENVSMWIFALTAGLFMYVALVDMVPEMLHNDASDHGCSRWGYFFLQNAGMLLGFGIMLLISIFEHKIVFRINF
Test: FACS, HEK293/Cyno_LIV-1 cells
QUANTITY_NAME: pEC50
Answers are plain numbers, as −log10 of the molar value.

Input: Entry 5D6B10 (antibody, V domains shown, Tested as chimeric antibody) VH: QVQLKQSGPGLVQPSQSLSITCTVSGFSLTTYGIHWVRQSPGKGLEWLGVIWTGGTTDYNAAFISRLSISKDNSKSQVFFKMNSLQANDTAIYYCARGPSSYWGQGTLVTVSA VL: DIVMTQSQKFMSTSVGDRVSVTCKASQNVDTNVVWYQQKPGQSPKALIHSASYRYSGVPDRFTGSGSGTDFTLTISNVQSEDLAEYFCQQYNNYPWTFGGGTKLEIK : reported pEC50 = ?
Output: 9.28

Values from patent US20240325555A1
